# tested on: rat CB2 receptors (HEK cells) (Rattus norvegicus (Rat), UniProt Q9QZN9)
# experiment: rat CB2 cyclase functional assay (HitHunter cAMP)
# Format: cell-based
# condition label: HEK cells, forskolin 18 μM; read-out: rat CB2 cyclase (EC50)
pEC50: −log10 of the molar value.
Quick list: pEC50 per entry.
property name: pEC50

substance smiles	property name	recorded result
CN1C[C@@H](F)C[C@H]1COc1ccc(C(F)(F)F)cc1C(=O)/N=c1\sc(C(C)(C)C)cn1C[C@H]1CCCO1	pEC50	9.92
CC(C)(C)c1cn(C[C@H]2CCCO2)/c(=N/C(=O)c2cc(C(F)(F)F)ccc2OCc2ccn[nH]2)s1	pEC50	9.12
CN1C(=O)CC[C@H]1COc1ccc(C(F)(F)F)cc1C(=O)/N=c1\sc(C(C)(C)C)cn1C[C@H]1CCCO1	pEC50	8.68
CC(C)(C)c1cn(C[C@H]2CCCO2)/c(=N/C(=O)c2cc(C(F)(F)F)ccc2OC[C@@H]2CCCN2S(C)(=O)=O)s1	pEC50	9.41
CC(C)(C)c1cn(C[C@H]2CCCO2)/c(=N/C(=O)c2cc(C(F)(F)F)ccc2OCc2ccccn2)s1	pEC50	8.99
CN1CCC(COc2ccc(C(F)(F)F)cc2C(=O)/N=c2\sc(C(C)(C)C)cn2C[C@H]2CCCO2)CC1	pEC50	8.20
CC(C)(C)c1cn(C[C@H]2CCCO2)/c(=N/C(=O)c2cc(C(F)(F)F)ccc2OC[C@H]2CCN2)s1	pEC50	8.65

* * *

# tested on: rat CB1 receptors (HEK cells) (Rattus norvegicus (Rat), UniProt P20272)
# Sequence (P20272 whole entry): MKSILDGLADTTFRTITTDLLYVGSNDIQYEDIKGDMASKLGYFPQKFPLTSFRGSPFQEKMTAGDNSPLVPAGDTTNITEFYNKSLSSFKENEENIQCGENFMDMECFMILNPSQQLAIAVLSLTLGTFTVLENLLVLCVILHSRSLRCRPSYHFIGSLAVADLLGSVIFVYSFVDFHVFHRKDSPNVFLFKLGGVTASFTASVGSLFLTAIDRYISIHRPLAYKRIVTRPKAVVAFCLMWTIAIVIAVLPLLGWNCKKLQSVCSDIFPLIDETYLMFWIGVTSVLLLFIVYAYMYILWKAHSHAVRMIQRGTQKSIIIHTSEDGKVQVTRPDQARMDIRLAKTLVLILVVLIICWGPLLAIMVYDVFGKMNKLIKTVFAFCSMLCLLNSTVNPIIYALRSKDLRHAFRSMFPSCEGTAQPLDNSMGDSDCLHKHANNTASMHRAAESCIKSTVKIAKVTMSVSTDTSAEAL
# experiment: rat CB1 cyclase functional assay (HitHunter cAMP)
# Assay type: cell-based
pEC50: −log10 of the molar value.
Quick list: pEC50 per entry.

substance smiles	tested on	result operator	pEC50
CC(C)(C)c1cn(C[C@H]2CCCO2)/c(=N/C(=O)c2cc(C(F)(F)F)ccc2OC[C@H]2CCCO2)s1	rat CB1 receptors (HEK cells) (Rattus norvegicus (Rat), UniProt P20272)	=	5.49
CN1CCC[C@H]1COc1ccc(C(F)(F)F)cc1C(=O)/N=c1\sc(C(C)(C)C)cn1C[C@H]1CCCO1	rat CB1 receptors (HEK cells) (Rattus norvegicus (Rat), UniProt P20272)	=	5.70
CC(C)(C)c1cn(C[C@H]2CCCO2)/c(=N/C(=O)c2cc(C(F)(F)F)ccc2OC[C@@H]2CNCCO2)s1	rat CB1 receptors (HEK cells) (Rattus norvegicus (Rat), UniProt P20272)	=	5.30
CC(C)(C)c1cn(C[C@H]2CCCO2)/c(=N/C(=O)c2cc(C(F)(F)F)ccc2OCc2cnco2)s1	rat CB1 receptors (HEK cells) (Rattus norvegicus (Rat), UniProt P20272)	=	5.12
Cn1ccnc1COc1ccc(C(F)(F)F)cc1C(=O)/N=c1\sc(C(C)(C)C)cn1C[C@H]1CCCO1	rat CB1 receptors (HEK cells) (Rattus norvegicus (Rat), UniProt P20272)	<	4.57
CN1CC[C@@H]1COc1ccc(C(F)(F)F)cc1C(=O)/N=c1\sc(C(C)(C)C)cn1C[C@H]1CCCO1	rat CB1 receptors (HEK cells) (Rattus norvegicus (Rat), UniProt P20272)	=	5.43
CC(C)(O)CCOc1ccc(C(F)(F)F)cc1C(=O)/N=c1\sc(C(C)(C)C)cn1C[C@H]1CCCO1	rat CB1 receptors (HEK cells) (Rattus norvegicus (Rat), UniProt P20272)	=	5.73

* * *

# tested on: UniProtKB Q9QZN9
Param label: returns satisfied when Ki < 7 nM, returns not satisfied otherwise, including exact equality.

molecule	assigned category
CC(C)(C)c1cn(C[C@H]2CCCO2)/c(=N/C(=O)c2cc(C(F)(F)F)ccc2OCc2nccs2)s1 [Example 38]	satisfied
CN1CC[C@H](COc2ccc(C(F)(F)F)cc2C(=O)/N=c2\sc(C(C)(C)C)cn2C[C@H]2CCCO2)C1 [Example 31]	not satisfied
CC(C)(C)NNc1ccc(C(F)(F)F)cc1C(=O)/N=c1\sc(C(C)(C)C)cn1C[C@H]1CCCO1 [Example 39]	satisfied
CC(C)(C)c1cn(C[C@H]2CCCO2)/c(=N/C(=O)c2cc(C(F)(F)F)ccc2OCC(C)(C)n2cccc2)s1 [Example 74]	satisfied
CC(=O)C(C)=NOc1ccc(C(F)(F)F)cc1C(=O)/N=c1\sc(C(C)(C)C)cn1C[C@H]1CCCO1 [Example 84]	satisfied
CC(CN1CCC[C@H]1COc1ccc(C(F)(F)F)cc1C(=O)/N=c1\sc(C(C)(C)C)cn1C[C@H]1CCCO1)=NO [Example 77]	not satisfied
CN1CC[C@@H](COc2ccc(C(F)(F)F)cc2C(=O)/N=c2\sc(C(C)(C)C)cn2C[C@H]2CCCO2)C1 [Example 30]	not satisfied
CC(C)(C)c1cn(C[C@H]2CCCO2)/c(=N/C(=O)c2cc(C(F)(F)F)ccc2OC[C@@H]2CNCCO2)s1 [Example 66]	satisfied
Cn1ccnc1COc1ccc(C(F)(F)F)cc1C(=O)/N=c1\sc(C(C)(C)C)cn1C[C@H]1CCCO1 [Example 17]	not satisfied
CC(=O)N1CCC[C@H]1COc1ccc(C(F)(F)F)cc1C(=O)/N=c1\sc(C(C)(C)C)cn1C[C@H]1CCCO1 [Example 47]	not satisfied
COCCn1cc(C(C)(C)C)s/c1=N\C(=O)c1cc(C(F)(F)F)ccc1OCc1cnccn1 [Example 41]	not satisfied
CN1CCC[C@H]1CNc1ccc(C(F)(F)F)cc1C(=O)/N=c1\sc(C(C)(C)C)cn1C[C@H]1CCCO1 [Example 55]	not satisfied
CC(=NOc1ccc(C(F)(F)F)cc1C(=O)/N=c1\sc(C(C)(C)C)cn1C[C@H]1CCCO1)C(F)(F)F [Example 80]	satisfied
CN1CCC[C@H]1COc1ccc(C(F)(F)F)cc1C(=O)/N=c1\sc(C(C)(C)C)cn1C[C@H]1CCCO1 [Example 24]	satisfied

* * *

# tested on: UniProtKB Q9QZN9
pKi: −log10 of the molar value.
Quick list: pKi per entry.

substance smiles	pKi
CC(C)(C)c1cn(C[C@H]2CCCO2)/c(=N/C(=O)c2cc(C(F)(F)F)ccc2OC[C@@H]2CCCCN2)s1	9.22
CC(C)(C)OC(=O)NNc1ccc(C(F)(F)F)cc1C(=O)/N=c1\sc(C(C)(C)C)cn1C[C@H]1CCCO1	9.52
CC(C)(C)c1cn(C[C@H]2CCCO2)/c(=N/C(=O)c2cc(C(F)(F)F)ccc2OC[C@H](N)CO)s1	9.05
CC(C)(C)C(=O)COc1ccc(C(F)(F)F)cc1C(=O)/N=c1\sc(C(C)(C)C)cn1C[C@H]1CCCO1	9.52
CC(C)(C)/C(COc1ccc(C(F)(F)F)cc1C(=O)/N=c1\sc(C(C)(C)C)cn1C[C@H]1CCCO1)=N\O	8.39
CC(=O)NOc1ccc(C(F)(F)F)cc1C(=O)/N=c1\sc(C(C)(C)C)cn1C[C@H]1CCCO1	8.60

* * *

# tested on: rat CB2 receptors (Rattus norvegicus (Rat))
Quick list: Ki per entry.
property name: Ki (nM)

compound	property name	recorded result
CC(C)(C)c1cn(C[C@H]2CCCO2)/c(=N/C(=O)c2cc(C(F)(F)F)ccc2OC[C@H]2CCCO2)s1 [Example 22]	Ki	0.5
CC(COc1ccc(C(F)(F)F)cc1C(=O)/N=c1\sc(C(C)(C)C)cn1C[C@H]1CCCO1)=NOC(C)(C)C [Example 82]	Ki	1.7
CC(C)(C)c1cn(C[C@H]2CCCO2)/c(=N/C(=O)c2cc(C(F)(F)F)ccc2OCc2cccnc2)s1 [Example 21]	Ki	10
CN1CCC[C@H]1COc1ccc(C(F)(F)F)cc1C(=O)/N=c1\scc(C(C)(C)C)n1C[C@H]1CCCO1 [Example 57]	Ki	15
CN1CCC[C@@H]1COc1ccc(C(F)(F)F)cc1C(=O)/N=c1\sc(C(C)(C)C)cn1C[C@H]1CCCO1 [Example 26]	Ki	70
CN1CC[C@H]1COc1ccc(C(F)(F)F)cc1C(=O)/N=c1\sc(C(C)(C)C)cn1C[C@H]1CCCO1 [Example 3]	Ki	4.5
CN1CC(COc2ccc(C(F)(F)F)cc2C(=O)/N=c2\sc(C(C)(C)C)cn2C[C@H]2CCCO2)C1 [Example 12]	Ki	28

* * *

# tested on: rat CB1 receptors (HEK cells) (Rattus norvegicus (Rat))
# experiment: rat CB1 cyclase functional assay (HitHunter cAMP)
# Format: cell-based
Param label: returns Criterion met when EC50 < 6 µM, returns Criterion not met otherwise, including exact equality.

substance smiles	assigned category
CC(C)(C)/C(COc1ccc(C(F)(F)F)cc1C(=O)/N=c1\sc(C(C)(C)C)cn1C[C@H]1CCCO1)=N/O	Criterion not met
COCCn1cc(C(C)(C)C)s/c1=N\C(=O)c1cc(C(F)(F)F)ccc1OCc1cnccn1	Criterion met
CN1CC[C@H]1COc1ccc(C(F)(F)F)cc1C(=O)/N=c1\sc(C(C)(C)C)cn1C[C@H]1CCCO1	Criterion met
CC(C)(C)c1cn(C[C@H]2CCCO2)/c(=N/C(=O)c2cc(C(F)(F)F)ccc2OC[C@H]2CCCCN2)s1	Criterion met
CC(C)(C)c1cn(C[C@H]2CCCO2)/c(=N/C(=O)c2cc(C(F)(F)F)ccc2OC[C@@H]2CCCN2S(C)(=O)=O)s1	Criterion not met
CC(C)(C)c1cn(C[C@H]2CCCO2)/c(=N/C(=O)c2cc(C(F)(F)F)ccc2OCc2ccccc2)s1	Criterion not met
CC(C)(C)c1cn(C[C@H]2CCCO2)/c(=N/C(=O)c2cc(C(F)(F)F)ccc2OC[C@H]2CCN2)s1	Criterion not met
